Recorded half-life at 1 µM for the following compounds
- procedureText: Microsomal stability in rat liver microsomes assessed as half life at 1 uM measured upto 120 mins in presence of NADPH by LC-MS analysis
- Assay type: ADME, Microsome
propertyMeasured: half-life at 1 µM (h)

INSERT INTO results (smilesinput, propertymeasured, resultvalue) VALUES
  ('C/C(O)=C(\C#N)C(=O)Nc1cc(O[C@@H](C)C(F)(F)F)c(C(=O)Nc2c(F)cccc2F)cc1F', 'half-life at 1 µM', 1.43),
  ('C/C(O)=C(\C#N)C(=O)Nc1cc(O[C@@H](C)C(F)(F)F)c(C(=O)Nc2c(F)cccc2Cl)cc1F', 'half-life at 1 µM', 0.77);

---

- procedureText: Clearance in Sprague-Dawley rat at 15 mg/kg, po measured after 48 hrs by LC-MS analysis
- Format: ADME, organism-based
- statedConditions: in vivo
Recorded CL/F for the following compounds
propertyMeasured: CL/F (mL/min/kg)

INSERT INTO assay_data (smilesinput, propertymeasured, resultvalue) VALUES
  ('C/C(O)=C(\C#N)C(=O)Nc1cc(O[C@@H](C)C(F)(F)F)c(C(=O)Nc2c(F)cccc2F)cc1F', 'CL/F', 10),
  ('C/C(O)=C(\C#N)C(=O)Nc1cc(O[C@@H](C)C(F)(F)F)c(C(=O)Nc2c(F)cccc2Cl)cc1F', 'CL/F', 11.7);

---

- Tested on: Raji
- procedureText: Antiproliferative activity against human Raji cells assessed as cell growth inhibition incubated for 96 hrs by MTT assay
- Assay type: functional, cell-based
pIC50: −log10 of the molar value.
Recorded pIC50 for the following compounds
propertyMeasured: pIC50

INSERT INTO assay_data (compound, resultvalue) VALUES
  ('C/C(O)=C(\C#N)C(=O)Nc1cc(O[C@@H](C)C(F)(F)F)c(C(=O)Nc2c(F)cccc2Cl)cc1F', 7.86),
  ('C/C(O)=C(\C#N)C(=O)Nc1cc(O[C@@H](C)C(F)(F)F)c(C(=O)Nc2c(Cl)cccc2Cl)cc1F', 7.49),
  ('CCn1c(CO)nn(-c2cc(O[C@@H](C)C(F)(F)F)c(C(=O)Nc3c(F)cccc3Cl)cc2F)c1=O', 9.40),
  ('C/C(O)=C(\C#N)C(=O)Nc1cc(O[C@@H](C)C(F)(F)F)c(C(=O)Nc2c(Br)cccc2Br)cc1F', 7.45),
  ('C/C(O)=C(\C#N)C(=O)Nc1cc(OC(C)C)c(C(=O)Nc2c(F)cccc2Cl)cc1F', 6.52),
  ('COc1cccc(-c2cc(F)c(Nc3ncccc3C(=O)O)c(F)c2)c1 [ASLAN-003]', 6.52),
  ('C/C(O)=C(\C#N)C(=O)Nc1cc(OC(C)C)c(C(=O)Nc2c(F)cccc2Br)cc1F', 6.46),
  ('C/C(O)=C(\C#N)C(=O)Nc1cc(OC(C)C)c(C(=O)Nc2c(Cl)cccc2Cl)cc1F', 6.35),
  ('C/C(O)=C(\C#N)C(=O)Nc1cc(O[C@@H](C)C(F)(F)F)c(C(=O)Nc2c(F)cccc2F)cc1F', 8.11),
  ('CCOc1cc(NC(=O)/C(C#N)=C(/C)O)c(F)cc1C(=O)Nc1c(Cl)cccc1Cl', 6.24),
  ('C/C(O)=C(\C#N)C(=O)Nc1cc(O[C@@H](C)C(F)(F)F)c(C(=O)Nc2c(F)cccc2Br)cc1F', 7.86),
  ('C/C(O)=C(\C#N)C(=O)Nc1cc(O[C@@H](C)C(F)(F)F)c(C(=O)Nc2c(Cl)cccc2Br)cc1F', 7.49);

---

- procedureText: Clearance in Sprague-Dawley rat at 5 mg/kg, iv measured after 48 hrs by LC-MS analysis
- Type: ADME, organism-based
- statedConditions: Sprague-Dawley, in vivo
propertyMeasured: clearance (mL/min/kg)

INSERT INTO measurements (smilesinput, propertymeasured, resultvalue) VALUES
  ('C/C(O)=C(\C#N)C(=O)Nc1cc(O[C@@H](C)C(F)(F)F)c(C(=O)Nc2c(F)cccc2Cl)cc1F', 'clearance', 5);
